Target: B2 bradykinin receptor (Homo sapiens) (UniProt P30411)
Sequence (whole entry): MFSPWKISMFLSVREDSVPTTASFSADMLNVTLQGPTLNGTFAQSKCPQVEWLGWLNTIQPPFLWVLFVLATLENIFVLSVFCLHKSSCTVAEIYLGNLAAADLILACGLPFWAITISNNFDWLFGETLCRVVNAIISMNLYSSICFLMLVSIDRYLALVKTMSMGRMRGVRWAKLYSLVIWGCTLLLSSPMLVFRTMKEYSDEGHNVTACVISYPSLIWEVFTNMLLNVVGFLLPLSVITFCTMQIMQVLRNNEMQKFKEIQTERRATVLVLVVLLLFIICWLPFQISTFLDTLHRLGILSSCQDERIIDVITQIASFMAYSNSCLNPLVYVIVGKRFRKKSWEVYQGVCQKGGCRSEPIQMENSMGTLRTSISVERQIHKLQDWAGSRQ
Experiment: Displacement of [3H]bradykinin from human recombinant bradykinin B2 receptor expressed in CHO cells at 50 uM measured after 1 hr relative to control
Format: cell-based
observable: inhibition (%)

CC1CCC(N2NC(=O)/C(=C\c3cccn3-c3ccc(S(N)(=O)=O)cc3)C2=O)CC1Cl (centres undefined) = 41
COc1cc(NC(C)CCCN)c2nc(C)ccc2c1OC1CCC(F)CC1 (centres undefined) = 45
COc1cc(NCCCCCCCC2CCCCN2)c2ncccc2c1 (centres undefined) = 65
COc1cc(NCCCCCCC2CCCCN2)c2ncccc2c1 (centres undefined) = 36
